assayed system: T1, CRBN, Q96SW2;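 also: pooled lentiviral library of zinc finger degron-EGFP fusions in mCherry-positive Jurkat cells, FACS-sorted after compound exposure, with degron abundance counted by next-generation sequencing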
T1 chain: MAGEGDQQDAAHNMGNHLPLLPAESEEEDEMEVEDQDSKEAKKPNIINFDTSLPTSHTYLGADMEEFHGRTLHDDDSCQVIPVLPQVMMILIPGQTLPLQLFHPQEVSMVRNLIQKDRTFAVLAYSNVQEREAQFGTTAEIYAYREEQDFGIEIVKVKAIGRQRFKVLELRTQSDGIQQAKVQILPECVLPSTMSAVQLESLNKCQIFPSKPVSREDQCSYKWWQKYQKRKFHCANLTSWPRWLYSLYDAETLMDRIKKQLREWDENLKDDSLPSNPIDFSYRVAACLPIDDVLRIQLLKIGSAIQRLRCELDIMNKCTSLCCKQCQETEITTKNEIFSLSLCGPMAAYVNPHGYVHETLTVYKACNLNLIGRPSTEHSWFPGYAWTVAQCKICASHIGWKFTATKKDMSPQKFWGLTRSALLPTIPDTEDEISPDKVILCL
test method notes: log2 fold change of degron read counts, EGFP-low vs EGFP+ sorted cells (limma voom), compound-induced degradation; higher = more compound-induced degradation of the degron-EGFP fusion; degrons are variants of IKZF1/3 zinc finger 2; compound dose not given here
details: Jurkat; 18 h; compound: thalidomide
The full ranking holds about 8,300 sequences; the median of “log2 fold change of degron read counts, EGFP-low vs EGFP+ sorted cells (limma voom), compound-induced degradation” is about -1.1, and the highest 2% start at about 3.2. This is one part of a sample in which the highest values are shown more often than they occur.
So I've got a bunch of sequences here, and I need their log2 fold change of degron read counts values.
Give bare numbers.

In the examples that follow, each entry is paired with its recorded log2 fold change of degron read counts.
FQCPVCGAEFTQKGNLLRHIKL [46F_47Q_49P_50V_52G_53A_54E_55F_67L_, Q9UKT9]; 3.76
FTCPICGREFTQKGNLLRHIKL [46F_47T_49P_50I_52G_53R_54E_55F_67L_, Q9UKT9]; 0.583
FCCSVCGHVFTQKGNLLRHIKL [46F_47C_49S_50V_52G_53H_54V_55F_67L_, Q9UKT9]; -2.11
FHCPICGHTFTQKGNLLRHIKL [46F_47H_49P_50I_52G_53H_54T_55F_67L_, Q9UKT9]; -1.65
FNCEVCGAEFTQKGNLLRHIKL [46F_47N_49E_50V_52G_53A_54E_55F_67L_, Q9UKT9]; -0.895
FQCEVCGAEFTQKGNLLRHIKL [46F_47Q_49E_50V_52G_53A_54E_55F_67L_, Q9UKT9]; 3.7

Please report log2 fold change of degron read counts for every entry that follows.
1. FWCDVCGACFTQKGNLLRHIKL [46F_47W_49D_50V_52G_53A_54C_55F_67L_, Q9UKT9]
2. FKCEVCGAEFTQKGNLLRHIKL [46F_47K_49E_50V_52G_53A_54E_55F_67L_, Q9UKT9]
3. FICSVCGHEFTQKGNLLRHIKL [46F_47I_49S_50V_52G_53H_54E_55F_67L_, Q9UKT9]

Return:
1: -0.931; 2: -1.02; 3: -3.41

Field: log2 fold change of degron read counts. Fill in for each record below.
1. FDCPVCGACFTQKGNLLRHIKL [46F_47D_49P_50V_52G_53A_54C_55F_67L_, Q9UKT9]
2. FHCDVCGACFTQKGNLLRHIKL [46F_47H_49D_50V_52G_53A_54C_55F_67L_, Q9UKT9]
3. FTCDVCGAIFTQKGNLLRHIKL [46F_47T_49D_50V_52G_53A_54I_55F_67L_, Q9UKT9]
4. FFCEVCGAEFTQKGNLLRHIKL [46F_47F_49E_50V_52G_53A_54E_55F_67L_, Q9UKT9]
5. FVCPVCGAEFTQKGNLLRHIKL [46F_47V_49P_50V_52G_53A_54E_55F_67L_, Q9UKT9]
6. FMCPQCGAEFTQKGNLLRHIKL [46F_47M_49P_50Q_52G_53A_54E_55F_67L_, Q9UKT9]

Return:
1. 1.34
2. -2.43
3. -0.951
4. 0.898
5. 2.53
6. -1.49
